# Tested on: SK-LU-1
# method-description: relative viability (nuclei count vs DMSO), 5 days (fraction); higher = more cells survive
# conditions: first compound 0.08 µM
quantity: relative viability

{"compound": "CCCCCCCCCCCC1=C(O)C(=O)C=C(O)C1=O [Embelin] + C[C@@H](Oc1cc(-c2cnn(C3CCNCC3)c2)cnc1N)c1c(Cl)ccc(F)c1Cl [Crizotinib] (partner 1 µM)", "recorded-number": 1.08}
{"compound": "CCCCCCCCCCCC1=C(O)C(=O)C=C(O)C1=O [Embelin] + CS(=O)(=O)CCNCc1ccc(-c2ccc3ncnc(Nc4ccc(OCc5cccc(F)c5)c(Cl)c4)c3c2)o1 [Lapatinib] (partner 2 µM)", "recorded-number": 1}
{"compound": "CCCCCCCCCCCC1=C(O)C(=O)C=C(O)C1=O [Embelin] + CC(=O)Nc1cccc(-n2c(=O)n(C3CC3)c(=O)c3c(Nc4ccc(I)cc4F)n(C)c(=O)c(C)c32)c1 [Trametinib] (partner 0.02 µM)", "recorded-number": 0.505}
{"compound": "CCCCCCCCCCCC1=C(O)C(=O)C=C(O)C1=O [Embelin] + O=C(CCCCCCC(=O)Nc1ccccc1)NO [Vorinostat] (partner 1 µM)", "recorded-number": 0.892}

* * *

# Tested on: SW 1573
# method-description: relative viability (nuclei count vs DMSO), 5 days (fraction); higher = more cells survive
# conditions: first compound 0.8 µM
Readings of relative viability for the listed compounds

{"compound": "CCCCCCCCCCCC1=C(O)C(=O)C=C(O)C1=O [Embelin] + CC(C)C[C@H](NC(=O)[C@H](Cc1ccccc1)NC(=O)c1cnccn1)B(O)O [Bortezomib] (partner 0.002 µM)", "relative viability": 1.29}
{"compound": "CCCCCCCCCCCC1=C(O)C(=O)C=C(O)C1=O [Embelin] + Nc1nc2[nH]cc(CCc3ccc(C(=O)N[C@@H](CCC(=O)O)C(=O)O)cc3)c2c(=O)[nH]1 [Pemetrexed] (partner 0.2 µM)", "relative viability": 0.844}
{"compound": "CCCCCCCCCCCC1=C(O)C(=O)C=C(O)C1=O [Embelin] + CC1(C)CCC(c2ccc(Cl)cc2)=C(CN2CCN(c3ccc(C(=O)NS(=O)(=O)c4ccc(N[C@H](CCN5CCOCC5)CSc5ccccc5)c(S(=O)(=O)C(F)(F)F)c4)cc3)CC2)C1 [Navitoclax] (partner 0.5 µM)", "relative viability": 0.976}

* * *

# Tested on: LOU-NH91
# method-description: relative viability (nuclei count vs DMSO), 5 days (fraction); higher = more cells survive
# conditions: first compound 0.04 µM

{"compound": "COc1cc(N2CCC(C(N)=O)CC2)ccc1Nc1nc(N)c(Cl)c(Nc2ccccc2S(=O)(=O)C(C)C)n1 [HG-5-88-01] + N=C(N)NC(=N)NCCc1ccccc1 [Phenformin] (partner 250 µM)", "assay-system": "LOU-NH91", "relative viability": 0.701}
{"compound": "COc1cc(N2CCC(C(N)=O)CC2)ccc1Nc1nc(N)c(Cl)c(Nc2ccccc2S(=O)(=O)C(C)C)n1 [HG-5-88-01] + NC(=O)Nc1cc(-c2cccc(F)c2)sc1C(=O)N[C@H]1CCCNC1 [AZD7762] (partner 0.2 µM)", "assay-system": "LOU-NH91", "relative viability": 0.809}
{"compound": "COc1cc(N2CCC(C(N)=O)CC2)ccc1Nc1nc(N)c(Cl)c(Nc2ccccc2S(=O)(=O)C(C)C)n1 [HG-5-88-01] + COc1cccc2cc(-c3nc([C@H]4CC[C@H](C(=O)O)CC4)n4ncnc(N)c34)[nH]c12 [OSI-027] (partner 0.5 µM)", "assay-system": "LOU-NH91", "relative viability": 0.602}
{"compound": "C[C@@H]1CN(CC(=O)Nc2ccc3c(c2)Cc2cccc(-c4cc(=O)cc(N5CCOCC5)o4)c2S3)C[C@H](C)O1 + CCNC(=O)c1noc(-c2cc(C(C)C)c(O)cc2O)c1-c1ccc(CN2CCOCC2)cc1 [Luminespib] (partner 0.01 µM)", "assay-system": "LOU-NH91", "relative viability": 0.39}
